system: TK-10 renal; assay: NCI tumour cell line growth inhibition, 48 h; in the data active means GI50 below about 0.43 µM; inactive means the rest
Choose one outcome from this list and give only that: active, inactive

These recorded examples may help you get a feel for the data.
compound=O=[N+]([O-])c1cccc(-c2nc3sccn3c2-c2ccnc(NCCCNS(=O)(=O)c3ccc(F)cc3)n2)c1 group=inactive
compound=Cc1ccc(NC(=O)c2ccnc(C(F)(F)F)c2)cc1-c1cc(OCCO)nc(N2CCOCC2)c1 group=inactive

For O=C(CNC(=O)c1cccc2ccccc12)Nc1ccccc1Oc1cccc(O)c1 , which call appears in the assay record?
inactive

Assay outcome for COc1ccc2c(c1)[nH]c(=O)c1c3cccnc3cn21 : what was it?
active

###

tested on: HOP-92 NSCLC; test: NCI tumour cell line growth inhibition, 48 h
observationType: TGI (µM)
Give the value in µM but do not write µM after it.

Previously resolved entries follow.
compound=O=C(Nc1ccccc1Cl)c1cnc2ccc(C3CCNCC3)cn12 reportedresult=7.28
compound=Cc1sc2ncnc(NCCc3ccccc3)c2c1C reportedresult=15.5
compound=Cc1sc2ncnc(Sc3nc4ccccc4[nH]3)c2c1C reportedresult=63.8
compound=Cc1ccc2c(ccc3c[n+]4ccccc4c(C)c32)c1 reportedresult=22.8
compound="CCOP(=O)(CS(C)=O)O[C@@H]1C[C@H](C)CC[C@H]1C(C)C (some centres not stated)" reportedresult=16.9
compound=N#Cc1cnn2c1n[n+]([O-])c1ccc(Cl)cc12 reportedresult=5.21

Reported TGI for CN1C(c2ccccc2)CC(=Nc2ccccc2)CC1c1ccccc1 (configuration not stated) : what is it?
22

# lookup: TGI of CN(CCO)CC(=O)CC(O)(C(F)(F)F)C(F)(F)F
54.2

I'd like to know its TGI. The compound in question is N#C/C(=C\c1ccc(Cl)cc1)c1nc2ccccc2c(=O)[nH]1
39.9

Suppose we examine the compound FC(F)(F)c1ccc2c(c1)N(CCCN1CCN(C3CC3)CC1)c1ccccc1S2 ; what TGI value has been reported?
28.1

I am curious: what TGI value has been reported for COc1ccc(C2CC(=O)Nc3c2c(C)nn3-c2nc3ccccc3[nH]2)cc1 (configuration not stated) ?
6.72
